Values compiled from ChEMBL document CHEMBL4390647.

# Tested on: Staphylococcus aureus
# experimental.details: Antibacterial activity against Staphylococcus aureus MRSA198 clinical isolate-1 measured after 18 to 20 hrs by microbroth dilution method
# Format: functional
# condition.description: MRSA198 isolate-1
parameter.measured: MIC
Provide the measurement as a number trailed by its unit.

(Q) Provide measured MIC on Staphylococcus aureus for COc1ccc(C2C(C#N)=C(N)Oc3cc(OCc4cn([C@@H]5O[C@H](COC(C)=O)[C@@H](OC(C)=O)[C@H](OC(C)=O)[C@H]5OC(C)=O)nn4)ccc32)cc1OC (stereo not given in full) please.
(A) 25 µM

(Q) Provide measured MIC on Staphylococcus aureus for CC(=O)OC[C@H]1O[C@@H](n2cc(COc3ccc4c(c3)OC(N)=C(C#N)C4c3ccc(N(C)C)cc3)nn2)[C@H](OC(C)=O)[C@@H](OC(C)=O)[C@@H]1OC(C)=O (stereo not given in full) please.
(A) 400 µM

(Q) Provide measured MIC on Staphylococcus aureus for CC(=O)OC[C@H]1O[C@@H](n2cc(COc3ccc4c(c3)OC(N)=C(C#N)C4c3ccc(Cl)cc3Cl)nn2)[C@H](OC(C)=O)[C@@H](OC(C)=O)[C@@H]1OC(C)=O (stereo not given in full) please.
(A) 6.25 µM

(Q) Provide measured MIC on Staphylococcus aureus for CC(=O)OC[C@H]1O[C@@H](n2cc(COc3ccc4c(c3)OC(N)=C(C#N)C4c3ccccc3[N+](=O)[O-])nn2)[C@H](OC(C)=O)[C@@H](OC(C)=O)[C@@H]1OC(C)=O (stereo not given in full) please.
(A) 6.25 µM

(Q) Provide measured MIC on Staphylococcus aureus for COc1ccccc1C1C(C#N)=C(N)Oc2cc(OCc3cn([C@@H]4O[C@H](COC(C)=O)[C@@H](OC(C)=O)[C@H](OC(C)=O)[C@H]4OC(C)=O)nn3)ccc21 (stereo not given in full) please.
(A) 400 µM

====

# Tested on: Escherichia coli
# experimental.details: Antibacterial activity against Escherichia coli ATCC 25922 measured after 18 to 20 hrs by microbroth dilution method
# Type: functional
For each entry below, report its MIC value.
Field: numeric (µM). Do not append units.

(Q) Give reported MIC value for CC(=O)OC[C@H]1O[C@@H](n2cc(COc3ccc4c(c3)OC(N)=C(C#N)C4c3cccc(Cl)c3)nn2)[C@H](OC(C)=O)[C@@H](OC(C)=O)[C@@H]1OC(C)=O (stereo partly drawn)
(A) 6.25

(Q) Give reported MIC value for COc1cccc(C2C(C#N)=C(N)Oc3cc(OCc4cn([C@@H]5O[C@H](COC(C)=O)[C@@H](OC(C)=O)[C@H](OC(C)=O)[C@H]5OC(C)=O)nn4)ccc32)c1 (stereo partly drawn)
(A) 200

(Q) Give reported MIC value for COc1cc(OC)cc(C2C(C#N)=C(N)Oc3cc(OCc4cn([C@@H]5O[C@H](COC(C)=O)[C@@H](OC(C)=O)[C@H](OC(C)=O)[C@H]5OC(C)=O)nn4)ccc32)c1 (stereo partly drawn)
(A) 100

====

# System: Escherichia coli
# experimental.details: Antibacterial activity against Escherichia coli ATCC 25922 measured after 18 to 20 hrs by microbroth dilution method
# Type: functional
parameter.measured: MIC (µM)
Field: numeric (µM). Do not append units.

(Q) Give reported MIC value for CC(=O)OC[C@H]1O[C@@H](n2cc(COc3ccc4c(c3)OC(N)=C(C#N)C4c3ccc(Cl)cc3Cl)nn2)[C@H](OC(C)=O)[C@@H](OC(C)=O)[C@@H]1OC(C)=O (stereo partly drawn)
(A) 3.12

(Q) Give reported MIC value for CC(=O)OC[C@H]1O[C@@H](n2cc(COc3ccc4c(c3)OC(N)=C(C#N)C4c3ccc(C(C)C)cc3)nn2)[C@H](OC(C)=O)[C@@H](OC(C)=O)[C@@H]1OC(C)=O (stereo partly drawn)
(A) 200

(Q) Give reported MIC value for COc1ccccc1C1C(C#N)=C(N)Oc2cc(OCc3cn([C@@H]4O[C@H](COC(C)=O)[C@@H](OC(C)=O)[C@H](OC(C)=O)[C@H]4OC(C)=O)nn3)ccc21 (stereo partly drawn)
(A) 400
